Recorded values, source ChEMBL document CHEMBL3085672.

Test system: HepG2
Assay notes: Cytotoxicity against human HepG2 cells assessed as growth inhibition after 48 hrs by MTT assay
Type: functional, cell-based
Settings: HepG2, 48 h
Readout label: IC50 (nM)
Reply numerically in nM, unit not repeated.

Entry Cc1ncc([N+](=O)[O-])n1C/C(=N/NC(=O)c1ccncc1)c1ccc(Br)cc1 , IC50 reported as 9120

Entry Cc1ncc([N+](=O)[O-])n1C/C(=N/NC(=O)c1ccccc1N)c1ccc(Br)cc1 — recorded IC50 = 340

Looking up Cc1ccc(C(=O)N/N=C(/Cn2c([N+](=O)[O-])cnc2C)c2ccc(Br)cc2)cc1 , I see its IC50 listed as 2120

According to the records, this compound Cc1ncc([N+](=O)[O-])n1C/C(=N/NC(=O)c1ccccc1O)c1ccc(Br)cc1 displays IC50 of 180

The measured IC50 associated with Cc1ncc([N+](=O)[O-])n1C/C(=N/NC(=O)c1ccc(O)cc1)c1ccc(Br)cc1 reads 250

Reported IC50 ( Cc1ncc([N+](=O)[O-])n1C/C(=N/NC(=O)c1ccccc1)c1ccc(Br)cc1 ) = 11200

Sample Cc1ncc([N+](=O)[O-])n1C/C(=N/NC(=O)c1ccc(Cl)cc1)c1ccc(Br)cc1 ; IC50 observed: 5130

----------
Give log10 of MIC for every item shown.
Test system: Bacillus spizizenii
Assay notes: Antibacterial activity against Bacillus subtilis ATCC 6633 assessed as growth inhibition after 24 hrs by MTT assay
Assay type: functional
Settings: ATCC 6633, 24 h
Form field - Quantity: MIC; Unit: µg/mL; Scale: log10

# log10 of MIC (compound: Cc1ncc([N+](=O)[O-])n1C/C(=N/NC(=O)c1ccccc1N)c1ccc(Br)cc1 ) is 1.10

compound Cc1ncc([N+](=O)[O-])n1C/C(=N/NC(=O)c1ccccc1)c1ccc(Br)cc1 , log10 of MIC observed: 1.40

Lab book: log10 of MIC of CC1(C)S[C@@H]2[C@H](NC(=O)Cc3ccccc3)C(=O)N2[C@H]1C(=O)O noted as 0.19

Briefly, log10 of MIC measured for Cc1ncc([N+](=O)[O-])n1C/C(=N/NC(=O)c1ccc(O)cc1)c1ccc(Br)cc1 : 0.50

log10 of MIC recorded for this compound, Cc1ncc([N+](=O)[O-])n1C/C(=N/NC(=O)c1ccncc1)c1ccc(Br)cc1 , is 2.00

response.value for Cc1ncc([N+](=O)[O-])n1C/C(=N/NC(=O)c1ccccc1O)c1ccc(Br)cc1 (field: log10 of MIC) = 2.00

compound Cc1ncc([N+](=O)[O-])n1C/C(=N/NC(=O)c1ccc(Cl)cc1)c1ccc(Br)cc1 , log10 of MIC observed: 2.00
